System: platelet aggregation in human platelet rich plasma (PRP)
Assay: Platelet Aggregation Assay (platelet rich plasma, with or without esterase pretreatment)
Assay type: cell-based
Conditions: without esterase, read-out: Platelet Aggregation Assay IC50 (without esterase)
observable: IC50

Lab note: record IC50 of CCCCS(=O)(=O)NC(CC1CC(c2ccc(OCC3CCNCC3)cc2)=NO1)C(=O)O (single isomer, unassigned) [9 (isomer B)] tested on platelet aggregation in human platelet rich plasma (PRP).
< 10 µM
